- System: DU-145
- procedure-details: Cytotoxicity against human DU145 cells by sulforhodamine B assay
- Type: functional, cell-based
The following molecules are shown together with reported EC50 values.
assay-metric: EC50 (µM)

INSERT INTO results (molecule, target_system, output_unit, modifier_sign, quantitative_readout) VALUES
  ('CCN1C[C@]2(C)CC[C@H](OC)[C@@]34[C@@H]5C[C@H]6[C@H](OC)[C@@H]5[C@](O)(C[C@@H]6OC)[C@](O)([C@@H](O)[C@H]23)[C@@H]14', 'DU-145', 'µM', '>', 20),
  ('CCN1C[C@]2(C)CC[C@H](OC)[C@@]34C1[C@@]1(OCO[C@@]15C[C@H](OC)[C@H]1C[C@@H]3[C@@H]5[C@H]1OC)[C@@H](OC(=O)c1ccc([N+](=O)[O-])cc1)[C@H]24 (single isomer, unassigned)', 'DU-145', 'µM', '=', 17.2),
  ('CCN1C[C@]2(C)CC[C@H](OC)[C@@]34C1[C@@]1(OCO[C@@]15C[C@H](OC)[C@H]1C[C@@H]3[C@@H]5[C@H]1OC)[C@@H](OC(=O)c1ccc(SC(F)(F)F)cc1)[C@H]24 (single isomer, unassigned)', 'DU-145', 'µM', '=', 16.6),
  ('CCN1C[C@]2(C)CC[C@H](OC)[C@@]34[C@@H]5C[C@H]6[C@H](OC)[C@@H]5[C@@]5(C[C@@H]6OC)OCO[C@@]5([C@@H](OC(=O)c5ccc(OCc6ccccc6)cc5)[C@H]23)[C@@H]14', 'DU-145', 'µM', '=', 13.2);

----------
- Test system: KB
- procedure-details: Cytotoxicity against human KB cells by sulforhodamine B assay
- Format: functional, cell-based
assay-metric: EC50

INSERT INTO assay_data (molecule, target_system, result) VALUES
  ('CCN1C[C@]2(C)CC[C@H](OC)[C@@]34[C@@H]5C[C@H]6[C@H](OC)[C@@H]5[C@@]5(C[C@@H]6OC)OCO[C@@]5([C@@H](OC(=O)c5ccc(Cl)cc5)[C@H]23)[C@@H]14', 'KB', '8.85 µM'),
  ('CCN1C[C@]2(C)CC[C@H](OC)[C@@]34[C@@H]5C[C@H]6[C@H](O)[C@@H]5[C@@]5(C[C@@H]6OC)OCO[C@@]5(C(=O)[C@H]23)[C@@H]14 [YUNNADELPHININE]', 'KB', '> 20 µM'),
  ('CCN1C[C@]2(C)CC[C@H](OC)[C@@]34C1[C@@]1(OCO[C@@]15C[C@H](OC)[C@H]1C[C@@H]3[C@@H]5[C@H]1OC)[C@@H](OC(=O)c1cc(OC)c(OC)c(OC)c1)[C@H]24 (single isomer, unassigned)', 'KB', '> 20 µM'),
  ('CCN1C[C@]2(C)CC[C@H](OC)[C@@]34C1[C@@]1(OCO[C@@]15C[C@H](OC)[C@H]1C[C@@H]3[C@@H]5[C@H]1OC)[C@@H](OC(=O)c1ccc([N+](=O)[O-])cc1)[C@H]24 (single isomer, unassigned)', 'KB', '> 20 µM'),
  ('CCN1C[C@]2(C)CC[C@H](OC)[C@@]34C1[C@@]1(OCO[C@@]15C[C@H](OC)[C@H]1C[C@@H]3[C@@H]5[C@H]1OC)[C@@H](OC(=O)c1ccc(F)cc1)[C@H]24 (single isomer, unassigned)', 'KB', '> 20 µM'),
  ('CCN1C[C@]2(C)CC[C@H](OC)[C@@]34C1[C@@]1(OCO[C@@]15C[C@H](OC)[C@H]1C[C@@H]3[C@@H]5[C@H]1OC)[C@@H](OC(=O)c1ccc(-c3ccccc3)cc1)[C@H]24 (single isomer, unassigned)', 'KB', '> 20 µM'),
  ('CCN1C[C@]2(C)CC[C@H](OC)[C@@]34C1[C@@]1(OCO[C@@]15C[C@H](OC)[C@H]1C[C@@H]3[C@@H]5[C@H]1OC)[C@@H](OC(=O)c1ccc(C(=O)OC)cc1)[C@H]24 (single isomer, unassigned)', 'KB', '> 20 µM'),
  ('CCN1C[C@]2(C)CC[C@H](OC)[C@@]34[C@@H]5C[C@H]6[C@H](OC)[C@@H]5[C@@]5(C[C@@H]6OC)OCO[C@@]5([C@@H](OC(=O)c5ccc(F)c(C)c5)[C@H]23)[C@@H]14', 'KB', '12.1 µM'),
  ('CCN1C[C@]2(C)CC[C@H](OC)[C@@]34[C@@H]5C[C@H]6[C@H](OC)[C@@H]5[C@@]5(C[C@@H]6OC)OCO[C@@]5([C@@H](OC(=O)/C=C/c5cccc(C(F)(F)F)c5)[C@H]23)[C@@H]14', 'KB', '> 20 µM');

----------
- System: KB
- procedure-details: Cytotoxicity against human KB cells by sulforhodamine B assay
- Assay type: functional, cell-based
pEC50: −log10 of the molar value.
assay-metric: pEC50

INSERT INTO results (compound, modifier_sign, quantitative_readout) VALUES
  ('CCN1C[C@]2(C)CC[C@H](OC)[C@@]34[C@@H]5C[C@H]6[C@H](OC)[C@@H]5[C@@]5(C[C@@H]6OC)OCO[C@@]5([C@@H](OC(=O)c5ccc(C(F)(F)F)c(F)c5)[C@H]23)[C@@H]14', '=', 5.26),
  ('CC(=O)O[C@H]1C(=O)[C@@]2(C)[C@H]([C@H](OC(=O)c3ccccc3)[C@]3(O)C[C@H](OC(=O)[C@H](O)[C@@H](NC(=O)c4ccccc4)c4ccccc4)C(C)=C1C3(C)C)[C@]1(OC(C)=O)CO[C@@H]1C[C@@H]2O', '=', 8.22),
  ('CCN1C[C@]2(C)CC[C@H](OC)[C@@]34C1[C@@]1(OCO[C@@]15C[C@H](OC)[C@H]1C[C@@H]3[C@@H]5[C@H]1OC)[C@@H](OC(=O)c1ccc(OC)cc1)[C@H]24 (single isomer, unassigned)', '<', 4.70),
  ('CCN1C(=O)[C@]2(C)CC[C@H](OC)[C@@]34[C@@H]5C[C@H]6[C@H](OC)[C@@H]5[C@@]5(C[C@@H]6OC)OCO[C@@]5([C@@H](O)[C@@H]32)[C@@H]14', '<', 4.70);

----------
The following compounds are shown together with reported EC50 values.
- Test system: KB
- procedure-details: Cytotoxicity against human KB cells by sulforhodamine B assay
- Format: functional, cell-based
assay-metric: EC50

INSERT INTO assay_data (compound, target_system, assay_metric, result) VALUES
  ('CCOc1ccc(C(=O)O[C@H]2[C@@H]3[C@@]4(C)CC[C@H](OC)[C@]35C(N(CC)C4)[C@@]23OCO[C@@]32C[C@H](OC)[C@H]3C[C@@H]5[C@@H]2[C@H]3OC)cc1 (single isomer, unassigned)', 'KB', 'EC50', '14.8 µM'),
  ('CCN1C[C@]2(C)CC[C@H](OC)[C@@]34[C@@H]5C[C@H]6[C@H](OC)[C@@H]5[C@](O)(C[C@@H]6OC)[C@](O)([C@@H](O)[C@H]23)[C@@H]14', 'KB', 'EC50', '> 20 µM'),
  ('CCN1C[C@]2(C)CC[C@H](OC)[C@@]34[C@@H]5C[C@H]6[C@H](OC)[C@@H]5[C@@]5(C[C@@H]6OC)OCO[C@@]5([C@@H](OC(=O)c5ccc(C(F)(F)F)nc5)[C@H]23)[C@@H]14', 'KB', 'EC50', '> 20 µM'),
  ('CCN1C[C@]2(C)CC[C@H](OC)[C@@]34[C@@H]5C[C@H]6[C@H](OC)[C@@H]5[C@@]5(C[C@@H]6OC)OCO[C@@]5([C@@H](OC(=O)/C=C/c5ccc(F)cc5)[C@H]23)[C@@H]14', 'KB', 'EC50', '> 20 µM'),
  ('CCN1C[C@]2(C)CC[C@H](OC)[C@@]34C1[C@@]1(OCO[C@@]15C[C@H](OC)[C@H]1C[C@@H]3[C@@H]5[C@H]1OC)[C@@H](OC(=O)c1cc([N+](=O)[O-])cc([N+](=O)[O-])c1)[C@H]24 (single isomer, unassigned)', 'KB', 'EC50', '19.1 µM'),
  ('CCN1C[C@]2(C)CC[C@H](OC)[C@@]34C1[C@@]1(OCO[C@@]15C[C@H](OC)[C@H]1C[C@@H]3[C@@H]5[C@H]1OC)[C@@H](OC(=O)c1ccc(OC(F)(F)F)cc1)[C@H]24 (single isomer, unassigned)', 'KB', 'EC50', '20.1 µM'),
  ('CCN1C[C@]2(C)CC[C@H](OC)[C@@]34C1[C@@]1(OCO[C@@]15C[C@H](OC)[C@H]1C[C@@H]3[C@@H]5[C@H]1OC)[C@@H](OC(=O)c1ccc(SC(F)(F)F)cc1)[C@H]24 (single isomer, unassigned)', 'KB', 'EC50', '> 20 µM'),
  ('CCN1C[C@]2(C)CC[C@H](OC)[C@@]34[C@@H]5C[C@H]6[C@H](OC)[C@@H]5[C@@]5(C[C@@H]6OC)OCO[C@@]5(C(=O)[C@H]23)[C@@H]14', 'KB', 'EC50', '> 20 µM'),
  ('CCN1C[C@]2(C)CC[C@H](OC)[C@@]34[C@@H]5C[C@H]6[C@H](OC)[C@@H]5[C@@]5(C[C@@H]6OC)OCO[C@@]5([C@@H](OC(=O)c5ccc(OCc6ccccc6)cc5)[C@H]23)[C@@H]14', 'KB', 'EC50', '6.76 µM');

Value source: ChEMBL document CHEMBL1933003
